TESTED SYSTEM: 17-beta-hydroxysteroid dehydrogenase type 3 (Homo sapiens) (UniProt P37058)
Sequence (whole entry): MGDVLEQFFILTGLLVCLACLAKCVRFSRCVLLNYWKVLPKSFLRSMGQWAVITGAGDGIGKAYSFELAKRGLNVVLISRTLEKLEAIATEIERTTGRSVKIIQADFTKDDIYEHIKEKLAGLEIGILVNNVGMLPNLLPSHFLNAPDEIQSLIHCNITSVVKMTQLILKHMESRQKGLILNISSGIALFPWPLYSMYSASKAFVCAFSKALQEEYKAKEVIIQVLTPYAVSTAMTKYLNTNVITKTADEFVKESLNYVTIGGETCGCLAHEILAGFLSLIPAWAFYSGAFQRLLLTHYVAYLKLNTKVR
TEST SUMMARY: Inhibition of 17Beta-HSD3 expressed in homogenized HEK293 cells assessed as transformation of [14C]-4-androstene-3,17-dione into [14C]-testosterone in presence of NADPH at 0.1 uM
Assay type: cell-based
Entries and their inhibition values follow.
Param answer (str): number followed by unit.

MOLECULE | inhibition
C[C@]12CC[C@](O)(CN3CCN(Cc4ccccc4C(F)(F)F)CC3)C[C@@H]1CC[C@@H]1[C@@H]2CC[C@]2(C)C(=O)CC[C@@H]12 | 86%

Lab note: need inhibition with 17-beta-hydroxysteroid dehydrogenase type 3 (Homo sapiens) (UniProt P37058) for entry `COc1cccc(CN2C[C@@H](C)N(C[C@@]3(O)CC[C@@]4(C)[C@@H](CC[C@@H]5[C@@H]4CC[C@]4(C)C(=O)CC[C@@H]54)C3)C[C@@H]2C)c1` , please look it up.
87%

Would you mind doing `CCCN(CCN1C[C@]2(CC[C@@]3(C)[C@@H](CC[C@@H]4[C@@H]3CC[C@]3(C)C(=O)CC[C@@H]43)C2)OC1=O)C(=O)CC` as well?
35%

Would you mind doing `C[C@]12CC[C@@]3(C[C@@H]1CC[C@@H]1[C@@H]2CC[C@]2(C)C(=O)CC[C@@H]12)CN(Cc1ccc(C(F)(F)F)nc1)C(=O)O3` as well?
65%

Would you mind doing `C[C@@H]1CN(S(=O)(=O)c2ccc(C(F)(F)F)cc2)[C@@H](C)CN1C[C@@]1(O)CC[C@@]2(C)[C@@H](CC[C@@H]3[C@@H]2CC[C@]2(C)C(=O)CC[C@@H]32)C1` as well?
92%

Would you mind doing `C[C@@H]1CN(C(=O)c2ccccc2)[C@@H](C)CN1C[C@@]1(O)CC[C@@]2(C)[C@@H](CC[C@@H]3[C@@H]2CC[C@]2(C)C(=O)CC[C@@H]32)C1` as well?
87%

Would you mind doing C[C@]12CC[C@@]3(C[C@@H]1CC[C@@H]1[C@@H]2CC[C@]2(C)C(=O)CC[C@@H]12)CN(CCC(CN1CCOCC1)OC(=O)CCC1CCCC1)C(=O)O3 (stereo partly drawn) as well?
79%

Would you mind doing `Cc1cccc(S(=O)(=O)CCN2C[C@]3(CC[C@@]4(C)[C@@H](CC[C@@H]5[C@@H]4CC[C@]4(C)C(=O)CC[C@@H]54)C3)OC2=O)c1` as well?
52%

Would you mind doing `C[C@]12CC[C@](O)(CN3CCC(N4CCCCC4)CC3)C[C@@H]1CC[C@@H]1[C@@H]2CC[C@]2(C)C(=O)CC[C@@H]12` as well?
4%

Would you mind doing `Cc1ccc(CN2C[C@]3(CC[C@@]4(C)[C@@H](CC[C@@H]5[C@@H]4CC[C@]4(C)C(=O)C(C)(C)C[C@@H]54)C3)OC2=O)cc1` as well?
22%

Would you mind doing `C[C@]12CC[C@](O)(CN3CCN(C(=O)c4ccccc4C(F)(F)F)CC3)C[C@@H]1CC[C@@H]1[C@@H]2CC[C@]2(C)C(=O)CC[C@@H]12` as well?
86%

Would you mind doing `C[C@]12CC[C@@]3(C[C@@H]1CC[C@@H]1[C@@H]2CC[C@]2(C)C(=O)CC[C@@H]12)CN(Cc1ccccc1C(F)(F)F)C(=O)O3` as well?
81%
